# Test system: SN12C
# METHOD_SUMMARY: NCI tumour cell line growth inhibition, 48 h
The source made the active and inactive calls. Cut-off read from the data, not from the text of the source: active = GI50 up to about 1.1 µM and inactive = higher.
Please reply with one of these outcomes: Y (active), N (inactive)

Check out these entries, answers already filled in.
Entry O=C(O)C1=CCCc2ccc3ccccc3c21 : call = ?
N

What would you report for CSc1c(CC(=O)O)n(Cc2ccccc2)c2ccccc12 ?
N

Let us now turn to CC1=CC(c2ccccc2)OP1(=O)c1ccccc1 (centres undefined)
N

Follow-up item: CN(C)c1ccc(NN=C2SC(=N\c3ccccc3)/C(=N/c3ccccc3)S2)cc1
N

Also check S=c1nc2[nH]c3ccc(Br)cc3c2n[nH]1
N

--- query ---
Assay result, entry O=C(NC(=O)c1cn(CCNCCO)c(=O)[nH]c1=O)OCc1ccccc1 — outcome?
N

* * *

# System: SW-620
# METHOD_SUMMARY: NCI tumour cell line growth inhibition, 48 h
The source made the active and inactive calls. Cut-off read from the data, not from the text of the source: active = GI50 up to about 1.1 µM and inactive = higher.
Entry note: the call must match one of active, inactive

Consider the following illustrative entries.
What did the test return for CN(CCc1ccccn1)C(=S)N/N=C/c1ccccn1 ?
active

Try the molecule C=C1C(=O)OC2CC(C)C(C(CC(C)=O)OC(C)=O)=CCC12 (centres undefined)
inactive

New cases:
What call does the record list for C=C1CC(Cn2cc(Br)c(=O)[nH]c2=O)(c2ccc(-c3ccccc3)cc2)OC1=O (centres undefined) ?
active

Next molecule up: COc1cc(-c2cn(S(=O)(=O)c3ccc(C)cc3)c3ccccc23)nc(-c2cn(S(=O)(=O)c3ccc(C)cc3)c3ccccc23)n1
inactive

Okay, and NS(=O)(=O)c1ccc(NC(=O)c2cccc3c(Nc4ccc(S(N)(=O)=O)cc4)c4ccccc4nc23)cc1 ?
inactive

Cool, now N#Cc1c(-c2ccccc2)c(C=O)c(=O)n2c1[nH]c1ccccc12
inactive

* * *

# System: HOP-92
# METHOD_SUMMARY: NCI tumour cell line growth inhibition, 48 h
The source made the active and inactive calls. Cut-off read from the data, not from the text of the source: active = GI50 up to about 1.1 µM and inactive = higher.
Kindly supply the reported GI50 values for the records listed here.

Observe how each entry below is paired with its result.
Given the compound Fc1ccc(N2C(=S)SC(=N\c3ccccc3)/C2=N/c2ccccc2)cc1 , what is its reported GI50?
> 42.8 µM (inactive)

Likewise for N#CNc1nc(N)c(-c2ccc(Cl)cc2)c(C(=O)Nc2nccs2)n1 ?
> 100 µM (inactive)

C/C1=C\[C@H](C)C[C@H](C)OC(=O)[C@H](C)NC(=O)[C@@H](Cc2ccc(O)c(Br)c2)N(C)C(=O)[C@H](C)NC(=O)[C@@H](C)C1 ?
0.0533 µM (active)

Field entry: CCOC(=O)c1cn2c(n1)sc1cc(F)ccc12
> 100 µM (inactive)

Check Nn1c(CCCCCCCCc2nnc(COc3ccc(Cl)cc3Cl)n2N)nnc1COc1ccc(Cl)cc1Cl too.
28.4 µM (inactive)

Would you mind giving GI50 for every compound in the list below?
1. COc1cc(/C=C/c2nc(N)nnc2C)cc(OC)c1OC
2. CO[C@H]1Nc2c(ccc(C)c2O)C(=O)N2C=C(/C=C/C(N)=O)C[C@@H]12 [ANTHRAMYCIN METHYL ETHER]

1. 16.6 µM (inactive)
2. 0.0258 µM (active)

Give GI50 for all compounds that follow.
1. Nc1nc(N)c2nc(CNc3ccc(C(=O)NC(CCNC(=O)c4ccccc4C(=O)O)C(=O)O)cc3)cnc2n1 (centres undefined)
2. CCOC(=O)c1nc2ccccc2nc1NCc1cc(OC)c(OC)c(OC)c1

1: 0.0698 µM (active); 2: 34.3 µM (inactive)
